Quick reference: TGI of the listed items.
tested on: U251 CNS; assay: NCI tumour cell line growth inhibition, 48 h
Respond with a number, then the unit of measure.

* O=C(NO)c1cnc(N2CCN(S(=O)(=O)c3ccc4ccccc4c3)CC2)nc1 | 0.298 µM
* CCN(CC)c1ccc2nc3c4ccccc4c(=NC(=O)c4ccccc4-c4c5ccc(N(CC)CC)cc5[o+]c5cc(N(CC)CC)ccc45)cc-3oc2c1 | 8.83 µM
* C=C1CO[C@@H]2C[C@@H]1CC/C(C)=C/CC/C(C)=C/CC[C@@]2(C)O | 32.4 µM

Can you share its TGI? I mean this molecule: O=c1cc(-c2nc3ccccc3[nH]2)[nH]c2nc(-c3nc4ccccc4[nH]3)cc(-c3ccc(Cl)cc3)c12
40 µM

====

system: 786-0 renal; assay: NCI tumour cell line growth inhibition, 48 h
Parameter Measured: log10(TGI) (log10 of the value in µM)
All values: base-10 log of TGI in µM.

Can you share its log10(TGI)? I mean this compound: O=C(Nc1cc(Cl)c(Cl)cc1Cl)C(=O)C(C(=O)c1ccc2ccccc2c1)C1OC(=O)c2ccccc21 (stereo not given)
1.32

Can you share its log10(TGI)? I mean this compound: CC(C)(C)c1cc(C(C)(C)C)c2sc(=S)oc2c1O
1.35

Can you share its log10(TGI)? I mean this compound: COP(=O)(C(/C=C/c1ccccc1)OC(C)=O)[C@@H]1CCCC[C@H]1N(CC(C)(C)C)C(C)=O (stereo not given in full)
1.55

Can you share its log10(TGI)? I mean this compound: C=C1CO[C@@H]2C[C@@H]1CC/C(C)=C/CC/C(C)=C/CC[C@@]2(C)O
1.52

Can you share its log10(TGI)? I mean this compound: O=C(NO)c1cnc(N2CCN(S(=O)(=O)c3ccc4ccccc4c3)CC2)nc1
0.45

====

system: HCT-116 colon; experiment: NCI tumour cell line growth inhibition, 48 h; in the data active = GI50 below about 0.43 µM; inactive = the rest
Log the outcome using a class from T (active), F (inactive)

// below: answered compounds
- CC(=O)/C=C/C1=C(c2ccsc2)c2ccccc2CC1: F
- COc1cccc(Nc2nccc(Nc3ccc4[nH]ncc4c3)n2)c1: F
- CC[O-].CC[O-].O=C([CH-]C(=O)c1ccccc1)c1ccccc1.O=C([CH-]C(=O)c1ccccc1)c1ccccc1.[Ti+4]: F
- N#CSCC(=O)c1ccc(Cl)cc1: F
- N#Cc1c(Oc2ccc(F)c(NC(=O)Cc3cccc(C(F)(F)F)c3)c2)ccc2nc(NC(=O)C3CC3)sc12: T

Please share the test call associated with CCN1C(=O)N(CC)C2C1NN=c1s/c(=C\c3ccccc3)c(=O)n12 (stereo unspecified) .
T

Please share the test call associated with Cc1cc2nc3c4ccccc4n(CCN(C)C)c3nc2cc1C .
F

Please share the test call associated with N#CC[C@H](C1CCCC1)n1cc(-c2ncnc3[nH]ccc23)cn1 .
F

Please share the test call associated with Cc1c(N2C(=O)/C(=C\c3ccc(N(C)C)cc3)N=C2c2ccccc2)c(=O)n(-c2ccccc2)n1C .
F

Please share the test call associated with CS[C@@]1(C(=O)Nc2ccc3[nH]nc(-c4ccc(OC(C)C)nc4)c3c2)CCN(CC(=O)N2CC=C(c3ccc(-c4ncn(C)n4)cc3)CC2)C1 .
T

Please share the test call associated with CCC[CH2][Sn]1([CH2]CCC)[O]C(=O)c2cc(C)ccc2[O]1 .
F

Please share the test call associated with CCN(CC)c1ccc2nc3c4ccccc4c(=NC(=O)c4ccccc4-c4c5ccc(N(CC)CC)cc5[o+]c5cc(N(CC)CC)ccc45)cc-3oc2c1 .
F

Please share the test call associated with COc1ccc(NC(=O)O[C@H]2[C@H](O[C@H]3[C@@H](O)COC(O[C@H]4C[C@H]5[C@@H]6CC=C7C[C@@H](O)CC[C@]7(C)[C@H]6CC[C@]5(C)[C@H]4[C@H](C)C(=O)CCC(C)C)[C@@H]3OC(C)=O)OC[C@@H](O)[C@@H]2O)cc1 (stereo partly specified) .
T

Please share the test call associated with CON .
F

Please share the test call associated with CN(NC(=O)CC(=O)NN(C)C(=S)c1ccc(Cl)cc1)C(=S)c1ccc(Cl)cc1 .
F

Please share the test call associated with O=C(NO)c1cnc(N2CCN(S(=O)(=O)c3ccc4ccccc4c3)CC2)nc1 .
T

====

test system: HCT-116 colon; experiment: NCI tumour cell line growth inhibition, 48 h
Quick reference: TGI of the listed items.

• COc1ccc2c(c1)CC[C@@H]1[C@@H]2CC[C@]2(C)[C@@H](O)/C(=C/c3ccncc3)C[C@@H]12 = 30 µM
• O=[N+]([O-])c1ccc(N2N=C(c3ccc4ccccc4c3O)CC2c2ccc(Cl)cc2Cl)c([N+](=O)[O-])c1 (stereo not drawn) = > 100 µM
• O=P1(O)c2ccccc2CS(=O)(=O)Cc2ccccc21 = > 100 µM
• COc1cc(/C=C/C(=O)c2ccc(Nc3nc(Nc4ccccc4)nc(Nc4ccc(Cl)cc4)n3)cc2)cc(OC)c1OC = > 32.5 µM
• Cc1c(N2C(=O)/C(=C\c3ccc(N(C)C)cc3)N=C2c2ccccc2)c(=O)n(-c2ccccc2)n1C = > 100 µM
• COc1ccc(-c2cncn2-c2cc(OC)c(OC)c(OC)c2)cc1F = 15.8 µM
• CC(C)(C)C(=O)[CH-]C(=O)C(F)(F)C(F)(F)C(F)(F)F.CC(C)(C)C(=O)[CH-]C(=O)C(F)(F)C(F)(F)C(F)(F)F.[O-]CC1OC(O)C(O)C(O)C1O.[O-]CC1OC(O)C(O)C(O)C1O.[Ti+4] = > 100 µM

Here is another compound to look at.
Kindly state the measured TGI obtained for N#CSCC(=O)c1ccc(Cl)cc1 with HCT-116 colon.
12.7 µM

====

test system: SK-MEL-5 melanoma; assay: NCI tumour cell line growth inhibition, 48 h
Quick reference: GI50 of the listed items.

# example entries with known answers
- Oc1[nH]c2ccc(Cl)cc2c1/C=c1/ccc2c(c1)N=C(c1cc(F)cc(F)c1)N=2: 4070 nM
- COc1ccc(NC(=O)O[C@H]2[C@H](O[C@H]3[C@@H](O)COC(O[C@H]4C[C@H]5[C@@H]6CC=C7C[C@@H](O)CC[C@]7(C)[C@H]6CC[C@]5(C)[C@H]4[C@H](C)C(=O)CCC(C)C)[C@@H]3OC(C)=O)OC[C@@H](O)[C@@H]2O)cc1 (stereo partly drawn): < 10 nM
- CCC[CH2][Sn]1([CH2]CCC)[O]C(=O)c2cc(C)ccc2[O]1: 854 nM
- CN1CCN(c2ccc3nc4c(nc3c2C(F)(F)F)C(=O)c2ncccc2C4=O)CC1: 1430 nM
- CCOc1cc(/C=N\NC(=O)N/N=C/c2ccc(O)c(OCC)c2)ccc1O: 1050 nM
- O=C(/C=C/c1cccc(B(O)O)c1)c1cccc(B(O)O)c1: 1850 nM
- COc1cc(C2C(C#N)=C(N)Oc3cc4c(cc32)OCO4)cc2c1OCO2 (stereo not drawn): 101 nM

Here is another molecule to look at.
Can you share its GI50? I mean this molecule: N#Cc1c(Oc2ccc(F)c(NC(=O)Cc3cccc(C(F)(F)F)c3)c2)ccc2nc(NC(=O)C3CC3)sc12
206 nM

====

test system: SNB-19 CNS; test: NCI tumour cell line growth inhibition, 48 h
Parameter Measured: GI50

# example entries with known answers
* CN1CCN(c2ccc3nc4c(nc3c2C(F)(F)F)C(=O)c2ncccc2C4=O)CC1 | 1660 nM
* C/C(=N\Nc1cccc(Cl)n1)c1ccccn1 | 1230 nM
* CCOC(=O)C(Cc1ccc(OC)cc1)C(=O)OCC | 4820 nM
* N#CC(C#N)=Cc1ccc(-c2ccc(-c3nc4ccccc4o3)cc2)o1 | > 100000 nM
* CC(C)[O-].CC(C)[O-].[O-]c1cccc2cccnc12.[O-]c1cccc2cccnc12.[Ti+4] | 61600 nM

Can you share its GI50? I mean this compound: C=C=[CH][Sn]([c]1ccccc1)([c]1ccccc1)[c]1ccccc1
1810 nM

====

system: UO-31 renal; test: NCI tumour cell line growth inhibition, 48 h
Quick reference: GI50 of the listed items.

# example entries with known answers
* C=C(C)[C@@H]1CC[C@]2(C)[C@H](C=CC3=C4C[C@@](C)(CO)CC[C@]4(C)CC[C@]32C)[C@@]1(C)CCCN | 1.34 µM
* CSc1ccc(C2=NN(C(=O)c3ccc(N)cc3)C(c3ccc(F)cc3)C2)cc1 (stereo unspecified) | 10.6 µM
* CC(C)CNc1nc(N=[N+]=[N-])nc(NCC(C)C)n1 | > 10 µM
* CCOc1cc(/C=N\NC(=O)N/N=C/c2ccc(O)c(OCC)c2)ccc1O | 8.47 µM
* CCN(CC)c1ccc2nc3c4ccccc4c(=NC(=O)c4ccccc4-c4c5ccc(N(CC)CC)cc5[o+]c5cc(N(CC)CC)ccc45)cc-3oc2c1 | 1.49 µM

Here is another compound to look at.
Can you share its GI50? I mean this compound: CC(=O)N[C@@H](Cc1ccc(OP(=O)(O)O)cc1)C(=O)N[C@H]1CCC(=O)N2CCC[C@@H](C(=O)NCc3ccc(O)cc3)N2C1=O
24.2 µM

The measured values listed here are drawn from PubChem BioAssay (NCI).
